Test: Metabolic stability in mouse liver microsomes assessed as parent compound remaining in presence of NADPH by LC-MS/MS method
Type: ADME
PARAMETER: Stability (%)

# annotated cases, reported Stability shown
>>> df
                                   compound  parameter  assay_value
0  Cc1cc(CN(C[C@H]2CC[C@H](C(=O)O)CC2)[C@H]2CCc3cc(Cl)ccc32)ccc1OCCN1C(=O)CCC1=O  Stability           91
1  COc1cc(CN(Cc2cccnc2)C(C)c2ccc3c(c2)CCO3)ccc1OCCN1C(=O)CCC1=O (centres undefined)  Stability           29
2  COc1cc(CN(CC(C)C)C(C)c2ccc3c(c2)CCO3)ccc1OCCN1C(=O)CCC1=O (centres undefined)  Stability            9
3  COc1cc(CN(C)C(C)c2ccc3c(c2)CCO3)ccc1OCCN1C(=O)CNC1=O (centres undefined)  Stability           55

A. COc1cc(CN(Cc2ccncc2)C(C)c2ccc3c(c2)CCO3)ccc1OCCN1C(=O)CCC1=O (centres undefined)
B. COc1cc(CN(Cc2ccc3c(c2)CCO3)CC(C)C)ccc1OCCN1C(=O)CCC1=O
C. COc1cc(CN(C)C(C)c2ccc3c(c2)CCO3)ccc1OCCN1C(=O)CN(C)C1=O (centres undefined)
D. COc1cc(CN(CCCC(=O)O)C(c2ccc3c(c2)CCO3)C2CCCC2)ccc1OCCN1C(=O)CCC1=O (centres undefined)
E. COc1cc(CN(C)C(C)c2ccc3c(c2)CCO3)ccc1OCCN1C(=O)CSC1=O (centres undefined)
## Input Put these in order: smallest Stability first, largest last. Order the labels as requested and give them as your answer.
## Output E, B, C, A, D
(E: 7%, B: 11%, C: 26%, A: 42%, D: 94%)

----------
Assay: Absolute oral bioavailability in Balb/c mouse at 10 mg/kg
Format: ADME, organism-based
Settings: in vivo
PARAMETER: bioavailability (%)

P. COc1cc(CN(C[C@H]2CC[C@H](C(=O)O)CC2)[C@@H](C)c2ccc(Cl)cc2)ccc1OCCn1c(=O)ccn(C)c1=O
Q. COc1cc(CN(C[C@H]2CC[C@H](C(=O)O)CC2)C(C)c2ccc3c(c2)CCO3)ccc1OCCN1C(=O)CCC1=O (some centres undefined)
R. COc1cc(CN(C[C@H]2CC[C@H](C(=O)O)CC2)[C@H]2CCc3c2ccc(Cl)c3F)ccc1OCCN1C(=O)CCC1=O
S. COc1cc(CN(CCCC(=O)O)C(C)c2ccc3c(c2)CCO3)ccc1OCCN1C(=O)CCC1=O (centres undefined)
## Input Ordering: ascending bioavailability. Order the labels as requested and give them as your answer.
## Output S, Q, P, R

----------
Molecular target: UniProtKB P49682
Sequence (whole entry): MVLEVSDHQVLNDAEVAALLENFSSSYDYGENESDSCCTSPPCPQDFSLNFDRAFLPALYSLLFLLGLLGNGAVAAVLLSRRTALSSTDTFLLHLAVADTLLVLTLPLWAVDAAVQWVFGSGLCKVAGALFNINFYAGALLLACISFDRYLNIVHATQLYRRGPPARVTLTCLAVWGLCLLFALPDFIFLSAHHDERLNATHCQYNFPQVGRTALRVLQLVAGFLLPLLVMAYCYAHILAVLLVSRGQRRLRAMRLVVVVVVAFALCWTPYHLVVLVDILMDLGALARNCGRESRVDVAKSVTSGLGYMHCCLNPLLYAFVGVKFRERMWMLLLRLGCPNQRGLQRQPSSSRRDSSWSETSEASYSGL
Assay: Displacement of [125I]-CXCL10 from human recombinant CXCR3 transfected in Flp-In-CHO cell membranes at 10 uM after 60 mins by gamma counting method relative to control
PARAMETER: inhibition (%)

                                   compound  assay_value
0  CC(c1ccc2c(c1)CCO2)N(C)Cc1ccc2c(c1)OC[C@H](CN1C(=O)CCC1=O)O2 (some centres not stated)           36
1  COc1cc(CN(C)C(C)c2ccc3c(c2)CCO3)ccc1OCN1C(=O)CCC1=O (configuration not stated)            8
2  COc1ccc(CN(C)C(C)c2ccc3c(c2)CCO3)cc1OCCN1C(=O)CCC1=O (configuration not stated)           18

P. CC(c1ccc2c(c1)CCO2)N(C)Cc1ccc2c(c1)OCCN2CCN1C(=O)CCC1=O (configuration not stated)
Q. COc1cc(CN(C)C(C)c2ccc3c(c2)CCO3)ccc1OCCCN1C(=O)CCC1=O (configuration not stated)
R. COc1cc(CN(C)C(C)c2ccc3c(c2)CCO3)cc(OCCN2C(=O)CCC2=O)c1 (configuration not stated)
S. COc1cc(CN(C)C(C)c2ccc3c(c2)CCO3)cc(OCCCN2C(=O)CCC2=O)c1 (configuration not stated)
## Input Put these in order: smallest inhibition first, largest last. Order the labels as requested and give them as your answer.
## Output R, P, S, Q
(R: 4%, P: 7%, S: 15%, Q: 39%)

Cited source for all entries: ChEMBL document CHEMBL3864163
